Catalogue of Max Inhibition (%) values
TARGET: T1, human CCR8 (human, UniProt P51685 1-355)
T1 construct: whole, on cells; also called hCCR8
T1 sequence (P51685 whole entry): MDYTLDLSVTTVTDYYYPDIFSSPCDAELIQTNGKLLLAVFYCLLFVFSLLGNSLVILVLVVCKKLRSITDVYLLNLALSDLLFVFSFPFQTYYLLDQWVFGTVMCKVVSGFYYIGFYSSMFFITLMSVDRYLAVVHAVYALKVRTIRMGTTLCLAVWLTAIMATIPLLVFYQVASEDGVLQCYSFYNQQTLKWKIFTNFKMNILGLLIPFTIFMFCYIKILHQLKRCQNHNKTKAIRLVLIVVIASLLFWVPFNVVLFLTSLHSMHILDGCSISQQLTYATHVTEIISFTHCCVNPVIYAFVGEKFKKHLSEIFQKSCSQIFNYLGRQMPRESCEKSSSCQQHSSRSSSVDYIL
PROCEDURE TEXT: FACS, competition with AF647-human CCL1 on CHO-K1-human CCR8 cells
Write down the numeric answer in % and omit the unit.

>  <BINDER>
149F2C10_N28S (antibody, V domains shown, NG site removed variant of 149F2C10) VH: EVQLVESGGGLVQPKGSLKLSCAASGFTFNTYAMNWVRQAPGKGLEWVARIRSKSNFYATYYADSVKDRFTISRDDSQDMLYLQMNILKTEDTAIYYCVRGRDYGSSYAMDYWGQGTSVTVSS VL: DIVMTQAAPSVPVTPGESVSISCRSSKSLLHSSGNTYLYWFLQRPGQSPQLLIYRMSNLASGVPDRFSGSGSGTAFTLRISRVEAEDVGVYYCMQHLEYPLTFGAGTKLELK

>  <Max Inhibition (%)>
44.9

$$$$
>  <BINDER>
149F2C10_N28Q (antibody, V domains shown, NG site removed variant of 149F2C10; detected with anti-mouse IgG) VH: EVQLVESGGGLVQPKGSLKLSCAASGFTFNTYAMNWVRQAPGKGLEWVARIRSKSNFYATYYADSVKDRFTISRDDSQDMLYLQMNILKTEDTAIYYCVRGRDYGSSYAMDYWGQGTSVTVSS VL: DIVMTQAAPSVPVTPGESVSISCRSSKSLLHSQGNTYLYWFLQRPGQSPQLLIYRMSNLASGVPDRFSGSGSGTAFTLRISRVEAEDVGVYYCMQHLEYPLTFGAGTKLELK

>  <Max Inhibition (%)>
55.7

$$$$

Task: Sample 149F2C10_N28I (antibody, V domains shown, NG site removed variant of 149F2C10) VH: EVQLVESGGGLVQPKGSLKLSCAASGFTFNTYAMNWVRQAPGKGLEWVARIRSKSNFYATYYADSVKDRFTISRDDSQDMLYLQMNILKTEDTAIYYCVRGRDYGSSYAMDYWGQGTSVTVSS VL: DIVMTQAAPSVPVTPGESVSISCRSSKSLLHSIGNTYLYWFLQRPGQSPQLLIYRMSNLASGVPDRFSGSGSGTAFTLRISRVEAEDVGVYYCMQHLEYPLTFGAGTKLELK — what was its Max Inhibition (%)?
Result: 65.3
